Kindly state melting point for each of the entries shown.

A selection of reference data follows.
[[record]]
compound = "CCc1nn2c(-c3cccc(C(F)(F)F)c3)c(C)cnc2c1C#N"
reported_measurement = "163 to 164 °C"

[[record]]
compound = "c1ccc(COC2CCN(Cc3cc4ccccc4[nH]3)CC2)cc1"
reported_measurement = "103 to 105 °C"

[[record]]
compound = "CC(S)C(O)(Cn1cncn1)c1ccc(F)cc1F (stereo not given)"
reported_measurement = "145 to 147 °C"

[[record]]
compound = "CC(C)COC(=O)c1ccc(N)cc1N"
reported_measurement = "54 to 55 °C"

[[record]]
compound = "CCOC(=O)C1=C(C)N(C(C)=O)C(c2csc(C)n2)=NC1c1ccc(C)cc1 (stereo not given)"
reported_measurement = "187 to 188 °C"


State the recorded melting point for every item in the following list.
1. CC1CC(=O)NN=C1c1cc2cc(O)c(O)cc2s1 (stereo not given)
2. CCS(=O)(=O)c1ccc(C(CC2CCCC2)C(=O)O)cc1 (stereo not given)
3. CN(c1cccc2cc(-c3ncc(CN4CCS(=O)(=O)CC4)s3)[nH]c12)S(=O)(=O)c1cccs1

> 270 °C
137 to 138 °C
225 to 226 °C

State the recorded melting point for every item in the following list.
1. CCOC(=O)c1c(C(F)(F)F)nc(C(F)(F)Cl)c(C(=O)OC)c1Nc1ccccc1
2. COc1nc(NCS(=O)(=O)c2ccc(C)cc2)nc(N(C)C)n1

["91 to 92 °C", "188 to 190 °C"]

* * *

Kindly state melting point for each of the entries shown.

[[record]]
record_smiles = "CCCOCCOc1ccc(-c2ccc3c(c2)C=C(C(=O)O)CCCN3CCC)cc1"
readout = "melting point"
reported_measurement = "202 to 204 °C"

[[record]]
record_smiles = "CCOC(=O)/C=C/c1cc2cc(OCc3nc(-c4ccccc4)oc3C)ccc2o1"
readout = "melting point"
reported_measurement = "120 to 121 °C"

[[record]]
record_smiles = "OCc1ccc(Cn2c(CC3CCN(CCNc4ccc(Cl)nn4)CC3)nc3ccccc32)o1"
readout = "melting point"
reported_measurement = "188 °C"

[[record]]
record_smiles = "CC(C)(C)C(=O)N1CCN(c2ccc(C(=O)CSc3ccnc4ccccc34)cc2)CC1"
readout = "melting point"
reported_measurement = "174 to 176 °C"


Please turn your attention to the following entry.
The compound NC(=O)c1ccc([N+](=O)[O-])cc1[N+](=O)[O-] showed melting point equal to 202 to 204 °C

* * *

Kindly state melting point for each of the entries shown.

A selection of reference data follows.
[[record]]
compound = "C=CCOc1ccc(C=CC(=O)N2CCN(c3nc(N)c4cc(OC)c(OC)cc4n3)CC2)cc1"
readout = "melting point"
reported_measurement = "218 to 220 °C"

[[record]]
compound = "Cc1cc(NC(=O)OC(C)(C)C)c(N)cc1C#Cc1ccccc1"
readout = "melting point"
reported_measurement = "172 to 173 °C"

[[record]]
compound = "COc1cc2c(N3CCN(C(=O)Nc4ccc(Oc5ccccc5)cc4)CC3)ncnc2c(OC)c1OC"
readout = "melting point"
reported_measurement = "83 to 84 °C"

[[record]]
compound = "O=C(O)COc1ccc(OCc2ccccc2)cc1OCc1ccccc1"
readout = "melting point"
reported_measurement = "72 °C"

[[record]]
compound = "CCCCCC(C)C(C)c1cc(OC)c2c(c1)OC(C)(C)C1=C2CN(C(=N)OC)CC1 (centres undefined)"
readout = "melting point"
reported_measurement = "134 to 136 °C"


State the recorded melting point for every item in the following list.
1. CCOC(=O)C1=C(C)NC(COC(N)=O)=C(C(=O)OCC)C1c1ccccc1[N+](=O)[O-] (centres undefined)
2. COC(=O)c1c(F)c(F)c(N=[N+]=[N-])c(F)c1F
3. CC(=O)CCc1cccc(C(N)=O)c1
4. CC1CN2C(=O)c3nc[nH]c3N(Cc3ccc(Cl)cc3)C2=N1 (centres undefined)

1: 128 to 132 °C; 2: 53.6 to 54.3 °C; 3: 122 to 125 °C; 4: 259 to 260 °C

* * *

readout: melting point

A selection of reference data follows.
[[record]]
molecule = "CCOC(=O)c1cc2ccc3c(c4ccccc4n3CC)c2n1C"
reported_measurement = "116 °C"

[[record]]
molecule = "Cc1ccc2c(c1)SC(c1ccc(OCCCCCBr)cc1)C(=O)N2C (stereo not given)"
reported_measurement = "81 to 82 °C"

[[record]]
molecule = "C#CCOc1cc(Oc2cccc(Cl)c2Cl)ncn1"
reported_measurement = "91.9 °C"

[[record]]
molecule = "C(=C\\c1ccc2oc3ccc(/C=C/c4ccccc4)cc3c2c1)/c1ccccc1"
reported_measurement = "226 °C"

[[record]]
molecule = "COc1ccc(C=NO)cc1OCCCCCc1ccccc1"
reported_measurement = "65 to 67 °C"

[[record]]
molecule = "O=C1NCCN(C(=O)OCc2ccccc2)C1Cc1ccccc1 (stereo not given)"
reported_measurement = "125 to 128 °C"


State the recorded melting point for every item in the following list.
1. CC(C)(C)OC(=O)NCCOCCNC1(c2ccccc2Cl)C(=O)Nc2ccc(Cl)cc21 (stereo not given)
2. Cc1nn(C(C)(C)C)c(N)c1C#N

138 to 140 °C
156 to 157 °C

State the recorded melting point for every item in the following list.
1. Cc1cc(N2CCC[C@H]2COc2ccc(CC3SC(=O)NC3=O)cc2)nc2ccccc12 (stereo not given in full)
2. COCCOc1cc(N(C)S(=O)(=O)c2cccs2)c2[nH]c(C3=NCC(CC(=O)O)S3)cc2c1 (stereo not given)

1: 95 to 97 °C; 2: 113 to 114 °C

* * *

Kindly state melting point for each of the entries shown.

[[record]]
molecule = "N#CC1=C(C2CCN(C(=O)c3ccccc3)CC2)Nc2n[nH]cc2C1c1cccc(C#N)c1Br (stereo unspecified)"
reported_measurement = "> 280 °C"

[[record]]
molecule = "CC(C)(C)c1ccc2c(c1)C(=O)c1ccc(C(=O)O)cc1S2(=O)=O"
reported_measurement = "259 to 262 °C"


State the recorded melting point for every item in the following list.
1. C#CCOc1ccc2ccc(=S)oc2c1
2. COC(=O)c1ccc2nc(SCCN3CCN(CC(=O)Nc4c(C(C)C)cccc4C(C)C)CC3)oc2c1C(=O)OC
3. CC(C)(C)OC(=O)NC(C)(CO)C(=O)OC(C)(C)C (stereo unspecified)
4. O=C(Cl)[C@H](Cc1ccccc1)NS(=O)(=O)c1ccc2ccccc2c1
5. O=C1Oc2ccccc2CN1C1CCN(Cc2ccccc2)CC1
6. CCOC(=O)c1c(Cn2cnnc2)nc2cc(OC)c(OC)cc2c1-c1ccc(OC)c(OC)c1

1. 97 to 101 °C
2. 186 to 187 °C
3. 44 to 45 °C
4. 141 to 143 °C
5. 106 to 107 °C
6. 226 to 227 °C

* * *

Kindly state melting point for each of the entries shown.

State the recorded melting point for every item in the following list.
1. Cc1cc(NC(=O)C(C)(O)COc2cccc(C(F)(F)F)c2)ccc1[N+](=O)[O-] (centres undefined)
2. CC(C)(C)OC(=O)N1CCC2(CC1)CC(c1ccc(CNS(C)(=O)=O)c(F)c1)=NO2
3. CC(C)(C)C(=O)C(CS(=O)(=O)c1ccc(Cl)cc1)n1cncn1 (centres undefined)
4. O=C(Nc1ccc(N2CCNCC2)cc1)c1ccccc1-c1ccc(C(F)(F)F)cc1
5. CSc1ccc2cc(C(=O)c3ccccc3)cc(CCNC(C)=O)c2c1

84 to 87 °C
178 to 182 °C
134 °C
119 to 124 °C
126 to 128 °C

* * *

Kindly state melting point for each of the entries shown.

A selection of reference data follows.
[[record]]
molecule = "O=C1c2ccccc2C(=O)c2oc(-c3cccs3)nc21"
reported_measurement = "> 260 °C"

[[record]]
molecule = "C[C@@H](O)COc1c(N)ccc(F)c1F"
reported_measurement = "47 to 48 °C"

[[record]]
molecule = "NC(=NC(=O)c1nc(Cl)c(N)nc1N)NCCCCCCCCCCCC(=O)O"
reported_measurement = "194 to 196 °C"

[[record]]
molecule = "CN(C)CC1CCCCN1CC(=O)N1c2ccccc2NC(=O)c2cscc21 (stereo not given)"
reported_measurement = "208 to 209 °C"

[[record]]
molecule = "COc1cc(Nc2c(C#N)cnc3cc(Cl)c([N+](=O)[O-])cc23)c(C)cc1Cl"
reported_measurement = "217 to 219 °C"

[[record]]
molecule = "CC(C)CC(=O)Nc1cccc(-c2ccnc3c(-c4cc(Cl)cc(Cl)c4)cnn23)c1"
reported_measurement = "223 to 225 °C"

[[record]]
molecule = "COC(=O)c1ccc(CCC2CNc3nc(NC(=O)C(C)(C)C)nc(O)c3C2)[nH]1 (stereo not given)"
reported_measurement = "246 to 248 °C"

[[record]]
molecule = "O=C(O)c1cc(-n2c(-c3ccccc3)cc3ccccc32)ccc1O"
reported_measurement = "210 to 212 °C"


State the recorded melting point for every item in the following list.
1. CC(C)C(O)(C#C[Si](C)(C)C)c1cncnc1 (stereo not given)
2. O=c1c2cc(F)c(N3CCCC3)nc2n(-c2ccc(C(F)(F)F)cc2)c(=O)n1OCc1ccccc1

1: 117 °C; 2: 231 to 233 °C
